Please provide measured log10 of IC50 for the entries that follow.
biological target: Alpha-glucosidase (Saccharomyces cerevisiae S288c, UniProt P53341+P38158+P07265); test: Inhibition of yeast alpha-glucosidase using p-nitrophenyl-alpha-D-glucopyranoside as substrate incubated for 30 mins by spectrophotometric assay; type: protein assay
Friendly reminder: values = log10 of IC50, unit µM.

Find log10 of IC50 (Alpha-glucosidase (Saccharomyces cerevisiae S288c, UniProt P53341+P38158+P07265)) for the entry COc1c(O)ccc2oc3c4c(c(CC=C(C)C)c(O)c3c(=O)c12)OC(C(C)(O)CCC=C(C)C)C4 (stereo not given)
1.84

Field: log10 of IC50 (Alpha-glucosidase (Saccharomyces cerevisiae S288c, UniProt P53341+P38158+P07265)). Entry: C=C(C)/C=C/c1c(OC)c(OC)cc2oc3cc(O)c(CC(O)C(=C)C)c(O)c3c(=O)c12 (stereo not given)
1.97

Which measured log10 of IC50 belongs to C=C(C)/C=C/c1c(OC)c(OC)cc2oc3cc(O)c(CC=C(C)C)c(O)c3c(=O)c12 , tested on Alpha-glucosidase (Saccharomyces cerevisiae S288c, UniProt P53341+P38158+P07265)?
1.26

Enter reported log10 of IC50 observed with Alpha-glucosidase (Saccharomyces cerevisiae S288c, UniProt P53341+P38158+P07265) for CC1Oc2cc(O)c3c(=O)c4c(O)ccc(O)c4oc3c2C1(C)C (stereo not given)
1.33

Give the reported log10 of IC50 for C=C(C)/C=C/c1c(O)c(OC)c(/C=C/C(=C)C)c2c(=O)c3c(O)c(CC(O)C(=C)C)c(O)cc3oc12 (stereo not given) (system: Alpha-glucosidase (Saccharomyces cerevisiae S288c, UniProt P53341+P38158+P07265)).
0.92

Request: log10 of IC50, test system Alpha-glucosidase (Saccharomyces cerevisiae S288c, UniProt P53341+P38158+P07265), entry C=C(C)/C=C/c1c(O)cc2oc3cc(O)c(OC)c(C/C=C(\C)CC=C(C)C)c3c(=O)c2c1O
1.32

Test system Alpha-glucosidase (Saccharomyces cerevisiae S288c, UniProt P53341+P38158+P07265); read-out log10 of IC50; what value for C=C(C)/C=C/c1c(O)cc2oc3cc(O)c(OC)c(/C=C/C(=C)C)c3c(=O)c2c1O ?
1.06

Lab note: need log10 of IC50 for COc1c(O)cc2oc3cc(O)c(C/C=C(\C)CO)c(O)c3c(=O)c2c1C/C=C(/C)CC=C(C)C on Alpha-glucosidase (Saccharomyces cerevisiae S288c, UniProt P53341+P38158+P07265), anyone have it?
2.23

So what log10 of IC50 did COc1c(O)cc2oc3cc(O)c(C/C=C(\C)COC(C)=O)c(O)c3c(=O)c2c1C/C=C(/C)CC=C(C)C get with Alpha-glucosidase (Saccharomyces cerevisiae S288c, UniProt P53341+P38158+P07265)?
1.26

Checklist item: log10 of IC50 tested on Alpha-glucosidase (Saccharomyces cerevisiae S288c, UniProt P53341+P38158+P07265), entry COc1cc2c(=O)c3c(O)c(C/C=C(\C)CCC=C(C)C)c(O)cc3oc2cc1O [COWAXANTHONE] , value?
1.64
